Give pIC50 for every item shown.
- system_name: UniProt:P42345
- procedure_text: Inhibition of mTORC1 in human PC3 cells assessed as reduction of phosphorylated 4E-BP1Thr37/46 level after 90 mins by HTRF assay
Numbers only, as −log10 of the molar value.

Nc1nc([C@@H]2C[C@H]3CC[C@@H](C2)N3C(=O)c2nnc[nH]2)cn2c(-c3cnn(-c4ccccc4)c3)cnc12	5.73

For every record below, what is its pIC50?
1. Nc1nc([C@@H]2C[C@H]3CC[C@@H](C2)N3C(=O)c2nnc[nH]2)cn2c(-c3ccc(-c4ccccc4)nc3)cnc12
2. Nc1nc([C@@H]2C[C@H]3CC[C@@H](C2)N3C(=O)CO)cn2c(-c3ccc(-c4ccccc4)nc3)cnc12

RESULT:
7.00
7.00

QUERY: # return recorded pIC50 for entry Cn1ccc(-c2ccc(-c3cnc4c(N)nc([C@@H]5C[C@H]6CC[C@@H](C5)N6C(=O)c5nnc[nH]5)cn34)cn2)n1
RESULT: 6.00
